- System: EU-1
- EXPERIMENTAL_DETAILS: WST cytotoxicity assay, cancer cell EU-1
- Format: cell-based, human
- CONDITION_SET: Homo sapiens, EU-1, EU-1; no other cell line named in the cell; read-out: Cancer cell (EU-1) cytotoxicity IC50
pIC50: −log10 of the molar value.
Rule: pIC50 under 5 gives no, otherwise yes.

Cc1cccc(NS(=O)(=O)c2ccc3c(c2)[C@H]2OCC[C@H]2[C@H](c2ccc(C(=O)C(C)C)cc2)N3)c1 [Compound 69L95]; yes
Cc1ccc(NS(=O)(=O)c2ccc3c(c2)[C@H]2OCC[C@H]2C(c2ccc(B(O)O)cc2)N3)cc1C (stereo partly shown) [Compound 69L18]; no
Cc1ccc(NS(=O)(=O)c2ccc3c(c2)C(=O)CC(c2ccc(C(=O)C(C)C)cc2)N3)cc1Cl (stereo not shown) [Compound 69L107]; yes

Attention now turns to another entry.
Could you please find out whether CC(C)c1cccc(NS(=O)(=O)c2ccc3c(c2)C(=O)CC(c2cccc(C(C)C)c2)N3)c1 (stereo not shown) [Compound 69L137] has pIC50 that meets 5 or exceeds it?
yes

###

- TARGET_DESC: MDM2 (Homo sapiens)
- Construct: ubiquitination of endogenous MDM2 in EU-1 cells; endogenous in cells; host or cells: EU-1 (ALL) cells
- Sequence (Q00987 whole entry): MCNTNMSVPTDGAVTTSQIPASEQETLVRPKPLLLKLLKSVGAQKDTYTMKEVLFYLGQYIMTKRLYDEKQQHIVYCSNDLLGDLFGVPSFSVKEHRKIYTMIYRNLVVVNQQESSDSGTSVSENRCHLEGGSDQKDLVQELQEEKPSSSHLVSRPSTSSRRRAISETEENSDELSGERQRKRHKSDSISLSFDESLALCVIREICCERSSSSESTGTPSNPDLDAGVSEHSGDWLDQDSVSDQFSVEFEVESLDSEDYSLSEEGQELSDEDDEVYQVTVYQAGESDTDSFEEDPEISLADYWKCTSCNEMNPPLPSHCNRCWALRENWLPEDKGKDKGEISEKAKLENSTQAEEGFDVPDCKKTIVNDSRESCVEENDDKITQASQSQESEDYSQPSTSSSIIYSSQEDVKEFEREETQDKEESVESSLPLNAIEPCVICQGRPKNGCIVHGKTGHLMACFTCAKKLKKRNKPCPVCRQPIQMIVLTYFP
- EXPERIMENTAL_DETAILS: MDM2 reduction / expression (Western blot)
- Type: cell-based
- CONDITION_SET: words or +/− grades, key not given
MEASURE_NAME: MDM2 reduction

CC(=O)c1cccc(C2Nc3ccc(S(=O)(=O)Nc4ccc(C)c(C)c4)cc3C3OCC[C@@H]23)c1 (stereo in doubt); inhibition
Cc1ccc(NS(=O)(=O)c2ccc3c(c2)C2OCC[C@H]2C(c2ccc(C(O)C(C)C)cc2)N3)cc1C (stereo in doubt); inhibition
CC(C)c1ccc(C2Nc3ccc(S(=O)(=O)Nc4cccc(C(C)O)c4)cc3[C@H]3OCC[C@@H]23)cc1 (stereo partly shown); No MDM2
Cc1ccc(NS(=O)(=O)c2ccc3c(c2)C2OCC[C@H]2[C@H](C2CCOCC2)N3)cc1C (stereo partly shown); inhibition
CC(=O)c1ccc(NS(=O)(=O)c2ccc3c(c2)[C@H]2OCC[C@H]2C(c2ccc(C(=O)C(C)C)cc2)N3)cc1 (stereo partly shown); inhibition

Which measured MDM2 reduction value corresponds to Cc1ccc(NS(=O)(=O)c2ccc3c(c2)C2OCC[C@H]2C(c2ccc(C(=O)c4ccccc4)cc2)N3)cc1C (stereo in doubt) ?
inhibition

Further, for CC(=O)c1cccc(C2CC(=O)c3cc(S(=O)(=O)Nc4ccc(F)c(C)c4)ccc3N2)c1 (stereo not shown) ?
No MDM2

Further, for CC(=O)c1cccc(NS(=O)(=O)c2ccc3c(c2)[C@H]2OCC[C@H]2C(c2cccc(C(C)=O)c2)N3)c1 (stereo in doubt) ?
No MDM2

Further, for Cc1cc(NS(=O)(=O)c2ccc3c(c2)C(=O)CC(c2ccc(C(=O)C(C)C)cc2)N3)ccc1F (stereo not shown) ?
inhibition

Further, for CC(C)C(=O)c1ccc(C2Nc3ccc(S(=O)(=O)N[C@H]4CC[C@H](C)CC4)cc3[C@H]3OCC[C@@H]23)cc1 (stereo partly shown) ?
No MDM2

Further, for CC(=O)c1ccc(C2Nc3ccc(S(=O)(=O)Nc4ccc(C)c(C)c4)cc3[C@H]3OCC[C@@H]23)cc1 (stereo partly shown) ?
No MDM2

Further, for CC(=O)c1ccc(NS(=O)(=O)c2ccc3c(c2)[C@H]2OCC[C@H]2C(c2cccc(C(C)=O)c2)N3)cc1 (stereo in doubt) ?
inhibition

Further, for O=S(=O)(Nc1ccccc1)c1ccc2c(c1)[C@H]1OCC[C@H]1[C@H](C1CCCCC1)N2 ?
No MDM2

Origin of values: patent US20240059658A1
